Data credit: patent US6310210A

- Test system: mouse leukemia L1210
- procedure summary: Anti-tumor activity: life prolonging effect in mice transplanted intraperitoneally with mouse leukemia L1210 (T/C%)
- Type: in vivo
- test settings: Table 4; total dose 25 mg/kg, i.p. day 1, 5 and 9
Recorded Anti-tumor activity (T/C%), one value per entry.
Quick note: give the figure in %, leave out the unit.

Assign Anti-tumor activity (T/C%) to the following record: CCc1c2c(nc3ccccc13)-c1cc(C(O)(CC)C(=O)[O-])c(CO)c(=O)n1C2.[Na+] (stereo not shown) [Reference Compound, 7-ethylcamptothecin sodium salt, reference compound]
215

Assign Anti-tumor activity (T/C%) to the following record: CCc1c2c(nc3ccccc13)-c1cc([C@@](O)(CC)C(=O)NCCN(C)C)c(COC(=O)Nc3ccc(F)cc3)c(=O)n1C2
136

Assign Anti-tumor activity (T/C%) to the following record: CCc1c2c(nc3ccccc13)-c1cc([C@@](O)(CC)C(=O)NCCN(C)C)c(COC(=O)NC(C)C)c(=O)n1C2
123

Assign Anti-tumor activity (T/C%) to the following record: CCc1c2c(nc3ccccc13)-c1cc([C@@](O)(CC)C(=O)NCCN(C)C)c(COC(=O)N(C)C)c(=O)n1C2
136

----------
- procedure summary: Stability test in water at each pH (phosphate buffer, HPLC)
- Assay type: physicochemical
- test settings: phosphate buffer; pH 10.0, after 24 hr; read-out: hydrolyzed in the aqueous solution
Counter-ions that a name gives are not always drawn.
readout type: degraded at 24 h (%)
Quick note: give the figure in %, leave out the unit.

Assign degraded at 24 h to the following record: CCc1c2c(nc3ccccc13)-c1cc([C@@](O)(CC)C(=O)NCCN(C)C)c(COC(C)=O)c(=O)n1C2 [Compound A, hydrochloride, reference compound]
84

----------
- procedure summary: Solubility of each hydrochloride in purified water
- Format: physicochemical
readout type: solubility

CCNC(=O)OCc1c([C@@](O)(CC)C(=O)NCCN(C)C)cc2n(c1=O)Cc1c-2nc2ccccc2c1CC	~14 mg/mL
CCc1c2c(nc3ccccc13)-c1cc([C@@](O)(CC)C(=O)NCCN(C)C)c(COC(=O)Nc3cccc4ccccc34)c(=O)n1C2	~5 mg/mL
CCCCNC(=O)OCc1c([C@@](O)(CC)C(=O)NCCN(C)C)cc2n(c1=O)Cc1c-2nc2ccccc2c1CC	~10 mg/mL
CCCOC(=O)OCc1c([C@@](O)(CC)C(=O)NCCN(C)C)cc2n(c1=O)Cc1c-2nc2ccccc2c1CC	≥ 52 mg/mL
CCc1c2c(nc3ccccc13)-c1cc([C@@](O)(CC)C(=O)NCCN(C)C)c(COC(=O)N3CCN(CC(=O)NC(C)C)CC3)c(=O)n1C2	≥ 33 mg/mL
CCc1c2c(nc3ccccc13)-c1cc([C@@](O)(CC)C(=O)NCCN(C)C)c(COC(=O)OC)c(=O)n1C2	≥ 50 mg/mL
CCc1c2c(nc3ccccc13)-c1cc([C@@](O)(CC)C(=O)NCCN(C)C)c(COC(=O)NC3CCCCC3)c(=O)n1C2	~50 mg/mL
CCc1c2c(nc3ccccc13)-c1cc([C@@](O)(CC)C(=O)NCCN(C)C)c(COC(=O)Nc3ccccc3F)c(=O)n1C2	~11 mg/mL
CCc1c2c(nc3ccccc13)-c1cc([C@@](O)(CC)C(=O)NCCN(C)C)c(COC(=O)NC)c(=O)n1C2	≥ 50 mg/mL

Assign solubility to the following record: CCc1c2c(nc3ccccc13)-c1cc([C@@](O)(CC)C(=O)NCCN(C)C)c(COC(=O)Nc3ccccc3)c(=O)n1C2
~15 mg/mL
